molecular target: human MC5R (hMC5R) (Homo sapiens, UniProt P33032); construct: purchased Perkin Elmer RBXMC5M400UA; assay: Human MC5R radioligand binding assay (membranes, [125I] NDP-MSH displacement); conditions: hMC5R binding; tested as trifluoroacetate or hydrochloride salts, or free bases; read-out: MC5R radioligand IC50
Sequence (P33032 whole entry): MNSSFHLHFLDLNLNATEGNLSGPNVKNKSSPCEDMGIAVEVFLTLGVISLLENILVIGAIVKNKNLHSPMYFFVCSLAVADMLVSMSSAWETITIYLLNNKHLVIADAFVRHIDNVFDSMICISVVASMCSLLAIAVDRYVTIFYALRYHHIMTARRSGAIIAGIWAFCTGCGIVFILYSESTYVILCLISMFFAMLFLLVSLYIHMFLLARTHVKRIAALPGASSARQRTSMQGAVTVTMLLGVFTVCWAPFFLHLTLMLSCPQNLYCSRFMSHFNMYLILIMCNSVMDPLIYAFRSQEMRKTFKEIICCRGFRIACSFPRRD
pIC50: −log10 of the molar value.
parameter: pIC50

# compound, parameter, experimentalResult
data = [
    ("Cc1ccc(C)n1CC[C@@H]1N[C@H](CNC(=O)/C=C/c2ccc(Cl)cc2)CCN(CC(c2ccccc2)c2ccccc2)C1=O [Compound 404]", "pIC50", "> 6.00"),
    ("N=C(N)NCCC[C@@H]1N[C@H](CNC(=O)c2ccc3ccccc3c2)CCN(CC(Oc2ccccc2)c2ccccc2)C1=O (stereo partly drawn) [Compound 295]", "pIC50", "> 7.00"),
]

// sample CC[C@H](CN1CC[C@@H](CNC(=O)c2ccc(Cl)c(Cl)c2)N[C@@H](CCN(CC)CC)C1=O)c1ccccc1 [Compound 426] , its pIC50 was > 7.00

====

target: human MC5R (hMC5R) (Homo sapiens); construct: purchased Perkin Elmer RBXMC5M400UA; assay: Human MC5R radioligand binding assay (membranes, [125I] NDP-MSH displacement); conditions: hMC5R binding; tested as trifluoroacetate or hydrochloride salts, or free bases; read-out: MC5R radioligand IC50
pIC50: −log10 of the molar value.
Reported pIC50 is given for each of the following compounds.

Solved entries:
# compound, assayedTarget, pIC50
measured = [
    ("N=C(N)NCCC[C@@H]1N[C@H](CNC(=O)c2cc3ccccc3o2)CCN(CC(c2ccccc2)c2ccccc2)C1=O [Compound 132]", "human MC5R (hMC5R) (Homo sapiens)", "> 5.00"),
    ("NCC[C@@H]1N[C@H](CNC(=O)C=Cc2ccccc2)CCN(CC(c2ccccc2)c2ccccc2)C1=O [Compound 279]", "human MC5R (hMC5R) (Homo sapiens)", "> 6.00"),
    ("CC(C)NCC[C@@H]1N[C@H](CNC(=O)c2ccc(Cl)c(Cl)c2)CCN(Cc2cc(Cl)cc(Cl)c2)C1=O [Compound 439]", "human MC5R (hMC5R) (Homo sapiens)", "> 7.00"),
    ("NCCC[C@@H]1N[C@H](CNC(=O)c2ccc3ccccc3c2)CCN(Cc2ccc(Cl)c(Cl)c2)C1=O [Compound 320]", "human MC5R (hMC5R) (Homo sapiens)", "> 5.00"),
    ("CC[C@H](CN1CC[C@@H](CNC(=O)c2ccc(Cl)c(Cl)c2)N[C@@H](CCN2CCC(C(=O)O)CC2)C1=O)c1ccccc1 [Compound 451]", "human MC5R (hMC5R) (Homo sapiens)", "> 7.00"),
    ("N=C(N)NCCC[C@@H]1N[C@H](CNC(=O)c2ccc(-c3ccccc3)cc2)CCN(CC2CCCCC2)C1=O [Compound 480]", "human MC5R (hMC5R) (Homo sapiens)", "> 6.00"),
    ("COc1ccc(C(CN2CC[C@@H](CNC(=O)c3ccc4ccccc4c3)N[C@@H](CCCNC(=N)N)C2=O)c2ccc(OC)cc2)cc1 [Compound 244]", "human MC5R (hMC5R) (Homo sapiens)", "> 5.00"),
    ("CC[C@H](CN1CC[C@@H](CNC(=O)c2ccc3cc(Cl)ccc3c2)N[C@@H](CCN2CCCCC2)C1=O)c1ccsc1 [Compound 511]", "human MC5R (hMC5R) (Homo sapiens)", "> 8.00"),
]

pIC50 on human MC5R (hMC5R) (Homo sapiens) for NCC[C@@H]1N[C@H](CNC(=O)c2ccc3cc(Cl)ccc3c2)CCN(Cc2ccc(Cl)cc2Cl)C1=O [Compound 507] is > 7.00

Assay human MC5R (hMC5R) (Homo sapiens), sample N=C(N)NCCC[C@@H]1N[C@H](CNC(=O)c2ccc3ccccc3c2)CCN(CC2c3ccccc3-c3ccccc32)C1=O [Compound 227] , pIC50 read: > 5.00

The compound CC[C@H](CN1CC[C@@H](CNC(=O)c2ccc(Cl)c(Cl)c2)N[C@@H](CCN2CCOCC2)C1=O)c1ccccc1 [Compound 427] , when measured on human MC5R (hMC5R) (Homo sapiens), yielded pIC50 of > 7.00

Record NCCCC[C@@H]1N[C@H](CNC(=O)[C@@H]2Cc3ccccc3CN2)CCN(CC(c2ccccc2)c2ccccc2)C1=O [Compound 127] / human MC5R (hMC5R) (Homo sapiens), pIC50 recorded as > 5.00

Reported pIC50 (human MC5R (hMC5R) (Homo sapiens)) for entry CCOc1ccc(/C=C/C(=O)NC[C@@H]2CCN(CC(c3ccccc3)c3ccccc3)C(=O)[C@H](CCCNC(=N)N)N2)cc1 [Compound 210] is > 7.00

Form field, pIC50 with human MC5R (hMC5R) (Homo sapiens), item N=C(N)NCCC[C@@H]1N[C@H](CNC(=O)c2ccc3ccccc3c2)CCN(CCC2CCCCC2)C1=O [Compound 242] : > 6.00

====

# Lookup of reported pIC50 keyed by entry
biological target: human MC5R (hMC5R) (Homo sapiens, UniProt P33032); construct: purchased Perkin Elmer RBXMC5M400UA; experiment: Human MC5R radioligand binding assay (membranes, [125I] NDP-MSH displacement); conditions: hMC5R binding; tested as trifluoroacetate or hydrochloride salts, or free bases; read-out: MC5R radioligand IC50
pIC50: −log10 of the molar value.

# smilesCode, pIC50
records = [
    ("N=C(N)NCCC[C@@H]1N[C@H](CNC(=O)c2ccc3ccccc3c2)CCN(C[C@@H](NC(=O)C2CCCCC2)c2ccccc2)C1=O", "> 5.00"),
]

// pIC50 value for CC[C@H](CN1CC[C@@H](CNC(=O)/C=C/c2ccc(Cl)cc2)N[C@@H](CCN2CCCCC2)C1=O)c1ccccc1 : > 8.00

The molecule listed as NCCC[C@@H]1N[C@H](CNC(=O)c2ccc3ccccc3c2)CCN(Cc2cc(F)cc(Cl)c2)C1=O has a reported pIC50 of > 6.00

So, CC[C@H](CN1CC[C@@H](CNC(=O)c2ccc(Cl)c(Cl)c2)N[C@@H](CCN(C)Cc2ccccc2)C1=O)c1ccccc1 ? Its pIC50 was > 8.00

Per the record, O=C(NC[C@@H]1CCN(CC(c2ccccc2)c2ccccc2)C(=O)[C@H](CCCNCc2ccccc2)N1)c1ccc2ccccc2c1 has pIC50 of > 7.00

response.value for N=C(N)NCCC[C@@H]1N[C@H](CNC(=O)c2ccc3ccccc3c2)CCN(Cc2cc(F)cc(Cl)c2)C1=O (field: pIC50) = > 6.00

====

Listed below: IC50 values for each entry.
molecular target: human MC5R (hMC5R) (Homo sapiens, UniProt P33032); construct: purchased Perkin Elmer RBXMC5M400UA; experiment: Human MC5R radioligand binding assay (membranes, [125I] NDP-MSH displacement); conditions: hMC5R binding; tested as trifluoroacetate or hydrochloride salts, or free bases; read-out: MC5R radioligand IC50

The following molecules have reported results that may help.
# molecule, IC50
measured = [
    ("NCCCC[C@@H]1N[C@H](CNC(=O)Cc2ccc(-c3ccccc3)cc2)CCN(Cc2ccc3ccccc3c2)C1=O", "< 1000 nM"),
    ("O=C(NC[C@@H]1CCN(CC(c2ccccc2)c2ccccc2)C(=O)[C@H](CCN2CCCCC2)N1)c1ccc2cc(F)ccc2c1", "< 10 nM"),
    ("N=C(N)NCCC[C@@H]1N[C@H](CNC(=O)c2ccc3ccccc3c2)CCN(C2CCCCC2)C1=O", "< 1000 nM"),
    ("O=C(/C=C/c1ccc(F)cc1)NC[C@@H]1CCN(CC(c2ccccc2)c2ccccc2)C(=O)[C@H](CCN2CCCCC2)N1", "< 10 nM"),
    ("NCC[C@@H]1N[C@H](CNC(=O)CCc2ccc(Cl)cc2)CCN(CC(c2ccccc2)c2ccccc2)C1=O", "< 10000 nM"),
]

Moving on to the next molecule.
The recorded IC50 for NCC[C@@H]1N[C@H](CNC(=O)c2ccc3cc(Cl)ccc3c2)CCN(Cc2cc(Cl)cc(Cl)c2)C1=O is < 100 nM

====

target: human MC5R (hMC5R) (Homo sapiens, UniProt P33032); construct: purchased Perkin Elmer RBXMC5M400UA; test: Human MC5R radioligand binding assay (membranes, [125I] NDP-MSH displacement); conditions: hMC5R binding; tested as trifluoroacetate or hydrochloride salts, or free bases; read-out: MC5R radioligand IC50
parameter: IC50

Illustrative cases are given below, each with its answer.
# molecule, IC50
rows = [
    ("CCC[C@@H](CN1CC[C@@H](CNC(=O)c2ccc3ccccc3c2)N[C@@H](CCN2CCCCC2)C1=O)c1ccccc1 [Compound 432]", "< 100 nM"),
    ("O=C(NC[C@@H]1CCN(Cc2cc(Cl)cc(Cl)c2)C(=O)[C@H](CCN2CCCCC2)N1)c1ccc2ccccc2c1 [Compound 327]", "< 100 nM"),
    ("CC(=O)N[C@@H](Cc1c[nH]cn1)C(=O)N[C@H](Cc1ccc2ccccc2c1)[C@@H]1CCN(CC(c2ccccc2)c2ccccc2)C(=O)[C@H](CCCNC(=N)N)N1 [Compound 86]", "< 1000 nM"),
]

Lab book: IC50 of CC[C@H](CN1CC[C@@H](CNC(=O)c2ccc(Cl)c(Cl)c2)N[C@@H](CCCN2CCCCC2)C1=O)c1ccccc1 [Compound 418] noted as < 100 nM

What the record says about NCC[C@@H]1N[C@H](CNC(=O)/C=C/c2ccc(F)cc2F)CCN(CC(c2ccccc2)c2ccccc2)C1=O [Compound 401] : IC50 is < 1000 nM

Consider O=C(NC[C@@H]1CCN(CC(c2ccccc2)c2ccccc2)C(=O)[C@H](CCN2CCOCC2)N1)c1ccc2cc(Cl)ccc2c1 [Compound 514] . Its measured IC50 is < 100 nM

Source of measurements: patent US8008291B2
